- assayed-target: human LPA1 (Homo sapiens)
- Construct: expressed in transfected cells; host or cells: CHO-K1
- Sequence (Q92633 whole entry): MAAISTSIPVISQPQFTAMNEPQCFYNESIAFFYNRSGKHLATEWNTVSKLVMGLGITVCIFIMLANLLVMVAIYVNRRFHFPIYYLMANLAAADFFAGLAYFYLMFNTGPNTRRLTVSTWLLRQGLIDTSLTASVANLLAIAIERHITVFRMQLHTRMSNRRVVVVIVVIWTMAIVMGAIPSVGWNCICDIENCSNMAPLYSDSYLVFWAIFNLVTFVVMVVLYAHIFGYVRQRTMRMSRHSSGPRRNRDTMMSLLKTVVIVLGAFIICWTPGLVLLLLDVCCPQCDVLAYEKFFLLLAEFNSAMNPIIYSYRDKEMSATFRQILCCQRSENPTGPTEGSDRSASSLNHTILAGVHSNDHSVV
- assay-comment: In vitro LPA1 calcium flux antagonist assay - Bioduro protocol
- Type: cell-based
- particulars: CHO-K1 cells overexpressing human LPA1 and G15a; LPA challenge at EC80; calcium mobilization on FLIPR Tetra; read-out: IC50
recorded-endpoint: IC50 (nM)

{"compound": "COc1cc(-c2ccc(NC3(C(=O)O)CC3)cc2COC2Cc3ccccc3C2)c(C)c(OC)c1C(C)=O", "test-result": 112}
{"compound": "COc1cc(-c2ccc(NC3(C(=O)O)CCOCC3)cc2CCC2CCOC2)cc(OC)c1C (single isomer, unassigned) [Compound 186]", "test-result": 64.3}
{"compound": "CCOc1cccc(-c2ccc(NC3(C(=O)O)CCOCC3)cc2COC2CCCC2)c1C", "test-result": 5.28}
{"compound": "COc1cc(OC)c(Cl)c(-c2ccc(NC3(C(=O)O)CCOCC3)cc2COC2CC2)c1", "test-result": 12.3}
{"compound": "COc1c(C(C)=O)ccc(-c2ccc(NC3(C(=O)O)CCOCC3)cc2COC2CCCC2)c1C", "test-result": 52.5}
{"compound": "CCc1c(-c2ccc(OC3(C(=O)O)CCOCC3)cc2COC2CCCC2)cc(OC)c(C)c1OC", "test-result": 79.8}
{"compound": "CCOc1cccc(-c2ccc(NC3(C(=O)O)CCOCC3)cc2COC2CC2)c1F", "test-result": 165}
{"compound": "O=C(O)C1(Nc2ccc(-c3cccc(OC4CC4)c3C(F)F)c(COC3CC3)c2)CCOCC1", "test-result": 5.9}
{"compound": "COc1cc(OC2CC2)c(F)c(-c2ccc(NC3(C(=O)O)CCOCC3)cc2COC2CCCC2)c1", "test-result": 1.13}
{"compound": "COc1cc(-c2ccc(NC3(C(=O)O)CCOCC3)cc2COC2CCC3(CC3)C2)cc(OC)c1C (stereo not drawn)", "test-result": 58}

(A) COc1cc(-c2c(Cl)cc(NC3(C(=O)O)CCOCC3)cc2COC2CCCC2)cc(OC)c1C
(B) CCCCOCc1cc(NC2(C(=O)O)CCOCC2)ccc1-c1cc(OC)c(C)c(OCC)c1F
Of the pair A and B , name the member with the lesser recorded IC50. Refer to your chosen entry by its label in the reply.
B
